Measured values drawn from ChEMBL document CHEMBL2417509 for this set.

System: A498
assayComment: Cytotoxicity against human A498 cells after 2 days by sulforhodamine B assay
Format: functional
cond: A498, 48 h
Listing: TGI of selected molecules
A number alone suffices; assume µM.

# annotated cases, reported TGI shown
{"moleculeSmiles": "COc1cc(-c2ccc[nH]2)[nH]c1/C=C1\\N=C(C)C(C(=O)CCC(=O)Oc2ccc3c(c2)CC[C@@H]2[C@@H]3CC[C@]3(C)C(=O)CC[C@@H]23)=C1C", "obsValue": 59.1}
{"moleculeSmiles": "CC/C(=C(/c1ccc(OCCN(C)C)cc1)c1ccc(OC(=O)CCC(=O)C2=C(C)/C(=C/c3[nH]c(-c4ccc[nH]4)cc3OC)N=C2C)cc1)c1ccccc1", "obsValue": 16.8}
{"moleculeSmiles": "CC/C(=C(/c1ccc(OCCN(C)C)cc1)c1ccc(OC(=O)CCCCCCCCC(=O)C2=C(C)/C(=C/c3[nH]c(-c4ccc[nH]4)cc3OC)N=C2C)cc1)c1ccccc1", "obsValue": 72.4}

Please look at the following molecule next.
Query: Quickly give me recorded TGI for "CCC(=C(c1ccc(OCCN(C)C)cc1)c1ccc(OC(=O)CCCCC(=O)C2=C(C)/C(=C/c3[nH]c(-c4ccc[nH]4)cc3OC)N=C2C)cc1)c1ccccc1"
Result: 26.3

###

Test system: RXF 393
assayComment: Cytotoxicity against human RXF393 cells after 2 days by sulforhodamine B assay
Format: functional
cond: RXF 393, 48 h
Here, each record is paired with measured GI50 data.
Respond with the bare value in µM.

{"moleculeSmiles": "CC/C(=C(/c1ccc(OCCN(C)C)cc1)c1ccc(OC(=O)CCC(=O)C2=C(C)/C(=C/c3[nH]c(-c4ccc[nH]4)cc3OC)N=C2C)cc1)c1ccccc1", "GI50, µM": 2.35}
{"moleculeSmiles": "CCC(=C(c1ccc(OCCN(C)C)cc1)c1ccc(OC(=O)CCCCC(=O)C2=C(C)/C(=C/c3[nH]c(-c4ccc[nH]4)cc3OC)N=C2C)cc1)c1ccccc1", "GI50, µM": 3.89}
{"moleculeSmiles": "COc1cc(-c2ccc[nH]2)[nH]c1/C=C1\\N=C(C)C(C(=O)CCC(=O)Oc2ccc3c(c2)CC[C@@H]2[C@@H]3CC[C@]3(C)C(=O)CC[C@@H]23)=C1C", "GI50, µM": 11.7}

Query: Consider the compound "CC/C(=C(/c1ccc(OCCN(C)C)cc1)c1ccc(OC(=O)CCCCCCCCC(=O)C2=C(C)/C(=C/c3[nH]c(-c4ccc[nH]4)cc3OC)N=C2C)cc1)c1ccccc1" . State its measured GI50.
Result: 13.8

###

Tested on: UACC-62
assayComment: Cytotoxicity against human UACC62 cells after 2 days by sulforhodamine B assay
Type: functional
cond: UACC-62, 48 h, read-out: LC50 (the source's name)
testReadout: CC50 (µM)
Hi! Could you send only the number? It should be in µM, unit omitted.

{"moleculeSmiles": "COc1cc(-c2ccc[nH]2)[nH]c1/C=C1\\N=C(C)C(C(=O)CCC(=O)Oc2ccc3c(c2)CC[C@@H]2[C@@H]3CC[C@]3(C)C(=O)CC[C@@H]23)=C1C", "assayedTarget": "UACC-62", "unitLabel": "µM", "CC50": 65.1}
{"moleculeSmiles": "CCC(=C(c1ccc(OCCN(C)C)cc1)c1ccc(OC(=O)CCCCC(=O)C2=C(C)/C(=C/c3[nH]c(-c4ccc[nH]4)cc3OC)N=C2C)cc1)c1ccccc1", "assayedTarget": "UACC-62", "unitLabel": "µM", "CC50": 45.7}

Note: attention shifts to another entry.
Query: Could you please provide reported CC50 for "CC/C(=C(/c1ccc(OCCN(C)C)cc1)c1ccc(OC(=O)CCC(=O)C2=C(C)/C(=C/c3[nH]c(-c4ccc[nH]4)cc3OC)N=C2C)cc1)c1ccccc1" ? Thanks!
Result: 7.88
